Data credit: the supplement of paper PMC10567573

B1: FLOT1 (parent)
chain: QMAKKAEAFQLYQEAAQLDMLLEK

Variants of: B1
Assay: protein stability index of a GFP-peptide fusion (GPS, HEK-293T) (PSI 1-6); higher = more stable;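 also: lentivirally expressed fusions sorted by FACS into six bins by GFP to DsRed ratio, PSI derived from sequencing read proportions per bin multiplied by bin number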
Details: c terminus: a fixed tail appended
observation_type: protein stability index

F9Q	1
L21R	3.19
L18Y	1.46
L21M	1.84
E23H	2.15
K4G	2.15

**Query** Can you look up the measured protein stability index of `A16I` for me?
**Result** 1.44

**Query** // protein stability index lookup, key: `K5Q`
**Result** 1.59

**Query** Give its protein stability index value. Item: `A6H`
**Result** 1.99

**Query** Tell me the measured protein stability index of `A3L` , please.
**Result** 2.63

**Query** Fill in: protein stability index of `M20G` is ___
**Result** 3.94

**Query** // lookup protein stability index for `Q10V`
**Result** 2.87

**Query** Please report the recorded protein stability index for `Q17I` .
**Result** 1.72

**Query** I am curious: what protein stability index value has been reported for `E7P` ?
**Result** 2.07
